- experimental-system: Aldehyde dehydrogenase 1A1 (Homo sapiens) (UniProt P00352)
- Sequence (P00352 whole entry, looked up): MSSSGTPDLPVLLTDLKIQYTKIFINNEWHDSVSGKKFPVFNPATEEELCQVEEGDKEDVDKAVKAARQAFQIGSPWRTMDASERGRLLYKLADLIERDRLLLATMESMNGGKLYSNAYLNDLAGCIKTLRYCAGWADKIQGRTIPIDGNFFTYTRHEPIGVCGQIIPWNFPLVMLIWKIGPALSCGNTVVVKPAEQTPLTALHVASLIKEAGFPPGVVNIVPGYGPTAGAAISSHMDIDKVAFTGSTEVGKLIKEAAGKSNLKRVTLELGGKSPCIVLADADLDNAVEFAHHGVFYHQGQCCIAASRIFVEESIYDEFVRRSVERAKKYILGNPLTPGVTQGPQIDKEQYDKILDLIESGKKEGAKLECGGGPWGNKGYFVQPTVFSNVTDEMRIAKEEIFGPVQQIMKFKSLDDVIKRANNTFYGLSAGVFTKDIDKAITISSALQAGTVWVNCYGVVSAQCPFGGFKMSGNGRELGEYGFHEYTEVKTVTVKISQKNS
- method-description: qHTS Assay for Inhibitors of Aldehyde Dehydrogenase 1 (ALDH1A1)
- assay-conditions: Purified ALDH1A1, NADH fluorescence, propionaldehyde substrate; series mostly up to 75.3 µM
Among all 220,000 compounds or so, about 16,000 (7.3%) were called active. About 25% were inconclusive and are not listed. Calls follow the shape of the dose curve; as a rule, active = well fitted inhibition curve with a large enough effect (not every such curve was filed as active); inconclusive = small, poorly fitted or top-dose-only effect, or another doubt; inactive = no such curve, though single readings can be large or run the other way. For the sample, actives were picked, then their nearest neighbours and some compounds at random.
Pick from active, inactive when you respond.

Here's what some known entries look like.
> print(dat)
                                   molecule  assigned.label
1  COc1ccc(CNC(=O)CCCn2nc(C)c([N+](=O)[O-])c2C)cc1          active
2  Cc1ccc(Oc2cc(NC(=O)CCCn3nc(C)c([N+](=O)[O-])c3C)cc([N+](=O)[O-])c2)cc1        inactive
3   COc1ccc(C2=NN(c3nc4ccccc4s3)C(=O)C2)cc1        inactive
4  Cc1ccccc1OCCC(=O)OCC(=O)NC(C)c1ccccc1 (stereo unspecified)        inactive
5  COc1ccccc1N1CCN(c2ccc([N+](=O)[O-])nc2)CC1        inactive

Hey, what did the test say about O=C(COC(=O)CC1CC2CCC1C2)NC(=O)NC1CCCC1 (stereo unspecified) ?
inactive

Value source: PubChem BioAssay AID1030
